system: EKVX NSCLC; test: NCI-60 one-dose screen, 48 h; conditions: 10 µM unless noted
The panel holds about 83,000 compounds, 20% with a hit somewhere; the sample as a whole holds those more often. Active and inactive are the calls of the source. Rule for the calls: active = growth percent below 10; inactive = the rest.
Choose the fitting class; nothing outside active, inactive is accepted.

Request: Status in this test for `Cc1cc2oc(=O)cc(CP(=O)(O)O)c2cc1O` ?
Response: inactive

Request: Hi, sorry to bother you, what did the test record for `CN1CCN(Cc2ccc(NC(=O)c3cncc(C#Cc4cnn5ccccc45)c3)cc2C(F)(F)F)CC1` ?
Response: active

Request: Entry `COc1ccc(NC(=O)c2ccc(C(=O)Nc3ccc(OC)cc3OC)cc2)c(OC)c1` : call = ?
Response: inactive

Request: Which outcome was assigned to COc1ccc(C(c2cc(OC)c(OC)c(OC)c2)N2CCCC2)cc1 (stereo not drawn) in this test?
Response: inactive

Request: GET /call?item= `CC(=O)c1c(Nc2ccc(F)c(F)c2F)[nH]c2c(F)cc(F)cc2c1=O` returns the recorded outcome of this test.
Response: active

Request: Please indicate how the test categorized `COc1ccccc1NC(=O)c1ccc(/C=C/C(=O)c2nccn2C)cc1` .
Response: active

Request: I would be grateful if you could indicate the recorded call for COc1cc2c(c(OC)c1OC)C(=O)CC(c1cccc(NC(=O)c3ccccc3Br)c1)O2 (stereo not drawn) .
Response: inactive

---

Exercise: for every item that follows, state its recorded growth.
tested on: UACC-62 melanoma; assay: NCI-60 one-dose screen, 48 h (100 = growth as untreated, 0 = no growth, -100 = all killed); conditions: 10 µM unless noted
About 83,000 compounds went through this panel and 20% of them were active in at least one assay; those are over-represented in the sample as a whole. Calls of active or inactive are those of the source. How the source made its calls: active means growth percent below 10; inactive means the rest.

>>> observed_result("Cc1cc(F)ccc1S(=O)(=O)Nc1cc(-c2c(O)ccc3ccccc23)c(O)c2ccccc12")
"2.8% (active)"
>>> observed_result("COc1ccc2cc(Cn3cc[n+](Cc4ccc5ccccc5c4)c3)ccc2c1")
"15.2% (inactive)"
>>> observed_result("O=C(CCCCCCN1CC(=O)N2[C@@H](c3ccc(Cl)cc3)c3[nH]c4ccccc4c3C[C@H]2C1=O)NO")
"34.5% (inactive)"
>>> observed_result("Nc1ccc([N+](=O)[O-])cc1N=C/C=C/c1ccccc1")
"63.2% (inactive)"
>>> observed_result("COc1cccc(OC)c1Oc1c(-c2nc3ccccc3s2)c(C)nn1-c1ccccc1")
"56.2% (inactive)"

Report growth for each item below.
1. CN(C)c1ccc(/C=C/C(=O)c2ccccc2)cc1
2. COc1cc(C(=O)C(=O)c2cc(OC)c(O)c(OC)c2)cc(OC)c1O
3. COc1cc2nc(Nc3cccc(F)c3)nc(Nc3cc(C)[nH]n3)c2cc1OC
4. CN(C)c1ccc(C(=NO)c2ccc(N(C)C)cc2)cc1
5. CN1C(=O)N(C)C2C1NC(=S)N2/N=C/C=C/c1ccccc1[N+](=O)[O-] (stereo not given)

Response:
["93.1% (inactive)", "89.8% (inactive)", "-95.7% [20 µM] (active)", "28.1% (inactive)", "26.4% (inactive)"]

---

test system: HCT-15 colon; assay: NCI-60 one-dose screen, 48 h; details: 10 µM unless noted
The panel holds about 83,000 compounds, 20% with a hit somewhere; the sample as a whole holds those more often. The source made the active and inactive calls. The calls were made as follows: active = growth percent below 10; inactive = the rest.
Would you mind answering with one of these outcomes? active, inactive

Consider the worked cases shown below.
>>> label_class("CCN(CC)CCOc1nc2c3ccc(Cl)cc3nn2c2ccccc12")
"active"
>>> label_class("COc1ccc2c(c1)c(-c1nonc1-c1c[nH]c3ccc(Br)cc13)cn2C")
"inactive"
>>> label_class("O=C(O)CCCn1c(SCc2c(Cl)cccc2Cl)nc2ccsc2c1=O")
"inactive"
>>> label_class("COc1ccc(/C=C/C(=O)c2ccc(NC(=O)CSc3nnc(-c4cc(-c5ccccc5)nc5ccccc45)n3-c3ccccc3)cc2)cc1")
"inactive"
>>> label_class("CCC(C)Nc1ccc(NC(C)CC)cc1 (stereo unspecified)")
"inactive"

Request: Which outcome was entered for the compound `C=CC(=O)NCCOc1cccc(Nc2cc(NCCCNC(=O)C3CCC3)c(Br)cn2)c1` in this test?
Response: active
